target_under_test: human epidermal growth factor receptor 2 (HER2) (human (endogenous in SKBR3, MCF7, T47D)) (UniProt P04626)
experiment_summary: radioligand binding; saturation binding of 99mTc-labeled peptide (0.1-30 nM) to ~300,000 MCF7 cells in low-serum media, 60 min, room temperature; non-specific binding with ~200-fold molar excess of unlabeled peptide; nonlinear regression
pKd: −log10 of the molar value.

{"substance": "99mTc-HER2 hybrid peptide (Acetyl-Gly-Gly-Cys-ALA-Lys-Ile-Phe-Gly-Ser-Leu-Ala-Phe-Leu-Lys-Cys-Cys-Tyr-Ser-Leu-CONH2)", "pKd": 6.80}

* * *

target_under_test: human epidermal growth factor receptor 2 (HER2) (human (endogenous in SKBR3, MCF7, T47D)) (UniProt P04626)
experiment_summary: radioligand binding; saturation binding of 99mTc-labeled peptide (0.1-30 nM) to ~300,000 T47D cells in low-serum media, 60 min, room temperature; non-specific binding with ~200-fold molar excess of unlabeled peptide; nonlinear regression
property: Kd

{"substance": "99mTc-HER2 hybrid peptide (Acetyl-Gly-Gly-Cys-ALA-Lys-Ile-Phe-Gly-Ser-Leu-Ala-Phe-Leu-Lys-Cys-Cys-Tyr-Ser-Leu-CONH2)", "assay_result": "169 nM"}
